Biological target: CeTb, colchicine site (Gallus gallus, UniProt P09207)
Assay: Single-point MDL competitive binding inhibition screen, erythrocyte tubulin
Set-up: species or system chicken (Gallus gallus)
Conditions: 50 µM drug, 1 µM tubulin, 5 µM MDL, single point
Entry flag: true (1) if CeTb % (inhibition of MDL binding) reaches 10%; false (0) if it does not.

// known answers, use as guide
COc1cc2c(cc1O)CC[C@@H]1[C@@H]2CC[C@]2(C)[C@@H](O)CC[C@@H]12 | false (0)
COc1ccc(C=Cc2cc(OC)cc(OC)c2)cc1 [Trimethoxy resveratrol (trans), 3, 5, 4’-trimethoxystilbene] | true (1)

[ask] Has COc1ccc(/C=C\c2cc(OC)c(OC)c(OC)c2)cc1O [CS-A4 trans, combretastatin-A4 (trans)] a recorded CeTb % (inhibition of MDL binding) greater than or equal to 10%?
[reply] false (0)

[ask] Has O=C1NC(=O)[C@@H](c2cn3c4c(cccc24)CCC3)[C@@H]1c1c[nH]c2ccccc12 [Tivantinib] a recorded CeTb % (inhibition of MDL binding) greater than or equal to 10%?
[reply] true (1)

[ask] Has `c1ccc2[nH]c(-c3cscn3)nc2c1` a recorded CeTb % (inhibition of MDL binding) greater than or equal to 10%?
[reply] true (1)

[ask] Has CCOC(=O)Nc1ccc(SC[C@@H]2CO[C@@](Cn3ccnc3)(c3ccc(Cl)cc3Cl)O2)cc1 [Tubulazole T] a recorded CeTb % (inhibition of MDL binding) greater than or equal to 10%?
[reply] true (1)

[ask] Has `COc1cc2c(c(OC)c1OC)-c1ccc(OC)c(=O)cc1CCC2` a recorded CeTb % (inhibition of MDL binding) greater than or equal to 10%?
[reply] true (1)

[ask] Has CCC[S+]([O-])c1ccc2[nH]c(NC(=O)OC)nc2c1 (stereo not shown) a recorded CeTb % (inhibition of MDL binding) greater than or equal to 10%?
[reply] true (1)
